The reported numbers originate from patent US8940331B2.

- Assay type: cell-based
- measurement.conditions: MTS assay, cells treated 24 h; concentration causing 50% cell death; read-out: LC50 MEL28 (Melanoma)
Square brackets hold non-standard residues; d marks the D form. Peptide text beside a SMILES is read from it. Nspe = C[C@H](NCC(=O)O)c1ccccc1; Nphe = O=C(O)CNCc1ccccc1; Nlys = NCCCCNCC(=O)O
quantity.measured: CC50

Name the reported CC50 value associated with the molecule C[C@@H](c1ccccc1)N(CC(=O)N(CC(=O)N(CCCCN)CC(=O)N(CC(=O)N(CC(=O)N(CCCCN)CC(=O)N(CC(=O)N(CC(=O)N(CCCCN)CC(=O)N(CC(=O)N(CC(N)=O)Cc1ccccc1)Cc1ccccc1)Cc1ccccc1)Cc1ccccc1)Cc1ccccc1)Cc1ccccc1)Cc1ccccc1)C(=O)CNCCCCN [1achiral-Nspe 2, H-NLys-Nspe-Npm-(NLys-Npm-Npm)3-NH2] (H-[Nlys][Nspe][Nphe][Nlys][Nphe][Nphe][Nlys][Nphe][Nphe][Nlys][Nphe][Nphe]-NH2)
18 µM

====

- Assay type: cell-based
- measurement.conditions: MTS assay, cells treated 24 h; concentration causing 50% cell death; read-out: LC50 MEL28 (Melanoma)
Square brackets hold non-standard residues; d marks the D form. Peptide text beside a SMILES is read from it. Nspe = C[C@H](NCC(=O)O)c1ccccc1; Nphe = O=C(O)CNCc1ccccc1; Nlys = NCCCCNCC(=O)O
quantity.measured: CC50 (µM)
Note: unit µM is implicit; provide only the numeric part.

{"compound": "C[C@@H](c1ccccc1)N(CC(N)=O)C(=O)CN(CCCCN)C(=O)CN(C(=O)CN(C(=O)CN(CCCCN)C(=O)CN(C(=O)CN(C(=O)CN(CCCCN)C(=O)CN(C(=O)CN(C(=O)CNCCCCN)[C@@H](C)c1ccccc1)[C@@H](C)c1ccccc1)[C@@H](C)c1ccccc1)[C@@H](C)c1ccccc1)[C@@H](C)c1ccccc1)[C@@H](C)c1ccccc1 [Peptoid 111mer, H-(NLys-Nspe-Nspe)3-NLys-Nspe-NH2] (H-[Nlys][Nspe][Nspe][Nlys][Nspe][Nspe][Nlys][Nspe][Nspe][Nlys][Nspe]-NH2)", "result.value": 15}
{"compound": "NCCCCNCC(=O)N(CC(=O)N(CC(=O)N(CCCCN)CC(=O)N(CC(=O)N(CC(=O)N(CCCCN)CC(=O)N(CC(=O)N(CC(=O)N(CCCCN)CC(=O)N(CC(=O)N(CC(N)=O)Cc1ccccc1)Cc1ccccc1)Cc1ccccc1)Cc1ccccc1)Cc1ccccc1)Cc1ccccc1)Cc1ccccc1)Cc1ccccc1 [Peptoid 1achiral, H-(NLys-Npm-Npm)4-NH2] (H-[Nlys][Nphe][Nphe][Nlys][Nphe][Nphe][Nlys][Nphe][Nphe][Nlys][Nphe][Nphe]-NH2)", "result.value": 18.5}
{"compound": "C[C@@H](c1ccccc1)N(CC(N)=O)C(=O)CN(C(=O)CN(CCCCN)C(=O)CN(C(=O)CN(C(=O)CN(CCCCN)C(=O)CN(C(=O)CN(C(=O)CN(CCCCN)C(=O)CN(C(=O)CN(C(=O)CNCCCCN)[C@@H](C)c1ccccc1)[C@@H](C)c1ccccc1)[C@@H](C)c1ccccc1)[C@@H](C)c1ccccc1)[C@@H](C)c1ccccc1)[C@@H](C)c1ccccc1)[C@@H](C)c1ccccc1 [Peptoid 1, H-(NLys-Nspe-Nspe)4-NH2] (H-[Nlys][Nspe][Nspe][Nlys][Nspe][Nspe][Nlys][Nspe][Nspe][Nlys][Nspe][Nspe]-NH2)", "result.value": 5}

Name the reported CC50 value associated with the compound C[C@@H](c1ccccc1)N(CC(N)=O)C(=O)CN(C(=O)CN(CCCCN)C(=O)CN(Cc1ccccc1)C(=O)CN(Cc1ccccc1)C(=O)CN(CCCCN)C(=O)CN(C(=O)CN(C(=O)CN(CCCCN)C(=O)CN(Cc1ccccc1)C(=O)CN(Cc1ccccc1)C(=O)CNCCCCN)[C@@H](C)c1ccccc1)[C@@H](C)c1ccccc1)[C@@H](C)c1ccccc1 [1-Npm2,3,8,9, H-(NLys-Npm-Npm-NLys-Nspe-Nspe)2-NH2]
16.5
